Test system: Fibroblast
Test: Multiplex assay against human fibroblast
Assay type: toxicity, cell-based
Settings: 48 h, 1 µM, compound concentration 1 uM, replicate 2
metric.name: Total Cell Count
Lab note: record just the number, no unit beside it.

Need Total Cell Count, item Cc1cc(C)c(S(=O)(=O)N(Cc2ccc(-c3cccc(S(C)(=O)=O)c3)cc2)Cc2ccc(C(F)(F)F)o2)c(C)c1
114

Need Total Cell Count, item O=C1N/C(=N/c2ccccc2F)S/C1=C\c1ccc(C(=O)O)cc1
161

Need Total Cell Count, item COc1cc(N2CCN(C)CC2)ccc1Nc1ncc2c(n1)N(C)c1ccccc1C(=O)N2C
83

Need Total Cell Count, item CCc1cccc(CC)c1NC(=O)c1nn(C)c2c1CCc1cnc(Nc3ccc(C(=O)NC4CCN(C)CC4)cc3OC(F)(F)F)nc1-2
102

Need Total Cell Count, item CNc1cc(Oc2cc(C(=O)Nc3cc(N4CCN(C)CC4)cc(C(F)(F)F)c3)ccc2C)ncn1
158

Need Total Cell Count, item Cl.Oc1ccc2c3c1O[C@H]1c4[nH]c5c(c4C[C@@]4(O)[C@@H](C2)N(CC2CC2)CC[C@]314)C[C@@]1(O)[C@H]2Cc3ccc(O)c4c3[C@@]1(CCN2CC1CC1)[C@H]5O4
103

Need Total Cell Count, item O=C(Cc1ccc(-c2ccc(OCCN3CCOCC3)cc2)cn1)NCc1ccccc1
170

Need Total Cell Count, item CCCn1c(=O)c2[nH]c(-c3cnn(Cc4cccc(C(F)(F)F)c4)c3)nc2n(CC)c1=O
100

Need Total Cell Count, item CN1CCC(=C2c3ccccc3CC(=O)c3sccc32)CC1.O=C(O)/C=C/C(=O)O [KETOTIFEN FUMARATE]
86
